# System: Z-138
# Experimental details: Antiproliferative activity against human Z138 cells assessed as cell growth inhibition incubated for 48 hrs by MTT assay
# Format: functional, cell-based
# Measurement parameters: Z-138, 48 h
Readout name: IC50 (nM)
Report the figure in nM without appending any unit label.

(Q) Which IC50 value is on record for Cc1ncnc2c1ccn2[C@@H]1O[C@@H]2[C@H](Cc3ccc4cc(Br)c(N)nc4c3)OC[C@]2(O)[C@H]1O ?
(A) 15

====

# Tested on: A549
# Experimental details: Antiproliferative activity against human A549 cells assessed as reduction in cell growth incubated for 72 hrs by SRB assay
# Assay type: functional, cell-based
# Measurement parameters: A549, 72 h
Readout name: pIC50
Answer as the number alone; pIC50 is minus log10 of concentration in mol/L.

(Q) Which pIC50 value is on record for C#Cc1cn([C@@H]2S[C@H](CO)[C@@H](O)[C@H]2O)c2ncnc(N)c12 ?
(A) 7.22

====

# Tested on: MDA-MB-231
# Experimental details: Anticancer activity against human MDA-MB-231 cells
# Type: functional, cell-based
Readout name: IC50 (nM)
Report the figure in nM without appending any unit label.

(Q) Which IC50 value is on record for [N-]=[N+]=N[C@@H]1[C@@H](O)[C@H](n2c(-c3c4ccccc4cc4ccccc34)nc3ccccc32)O[C@@H]1CO ?
(A) 420

====

# System: SK-HEP1
# Experimental details: Cytotoxicity against human SK-HEP1 cells
# Assay type: functional, cell-based
Readout name: pIC50
Answer as the number alone; pIC50 is minus log10 of concentration in mol/L.

(Q) Which pIC50 value is on record for Nc1ncnc2c1c1sc3c4sccc4sc3c1n2[C@H]1C[C@@H](O)[C@@H](CO)O1 ?
(A) 6.32
